Values from patent US8530474B2

pKi: −log10 of the molar value.
Please consider the recorded pKi for human H3 receptor (Homo sapiens) in what follows.

Considering OC(c1ccccc1)c1cc(N2CCNCC2)nnc1C(F)(F)F (stereo not shown) , its pKi with human H3 receptor (Homo sapiens) was recorded as < 5.00

Considering Fc1ccc(COc2cc(N3CCNCC3)nnc2C(F)(F)F)cc1 , its pKi with human H3 receptor (Homo sapiens) was recorded as < 5.00

Considering Fc1ccc(Nc2cc(N3CCNCC3)nnc2C(F)(F)F)cc1 , its pKi with human H3 receptor (Homo sapiens) was recorded as < 5.00

Considering FC(F)(F)c1nnc(N2CCNCC2)cc1Cc1ccccc1 , its pKi with human H3 receptor (Homo sapiens) was recorded as < 5.00

Others:
Considering O=C(c1ccccc1)c1cc(N2CCNCC2)nnc1C(F)(F)F , its pKi with human H3 receptor (Homo sapiens) was recorded as < 5.00

Considering Fc1ccc(Oc2cc(N3CCNCC3)nnc2C(F)(F)F)cc1 , its pKi with human H3 receptor (Homo sapiens) was recorded as 5.30

Considering Fc1ccc(/C=C/c2cc(N3CCNCC3)nnc2C(F)(F)F)cc1 , its pKi with human H3 receptor (Homo sapiens) was recorded as < 5.00

Considering Fc1ccc(CNc2cc(N3CCNCC3)nnc2C(F)(F)F)cc1 , its pKi with human H3 receptor (Homo sapiens) was recorded as < 5.00
